Molecular target: C-C chemokine receptor type 1 (Homo sapiens)
Sequence (P32246 whole entry): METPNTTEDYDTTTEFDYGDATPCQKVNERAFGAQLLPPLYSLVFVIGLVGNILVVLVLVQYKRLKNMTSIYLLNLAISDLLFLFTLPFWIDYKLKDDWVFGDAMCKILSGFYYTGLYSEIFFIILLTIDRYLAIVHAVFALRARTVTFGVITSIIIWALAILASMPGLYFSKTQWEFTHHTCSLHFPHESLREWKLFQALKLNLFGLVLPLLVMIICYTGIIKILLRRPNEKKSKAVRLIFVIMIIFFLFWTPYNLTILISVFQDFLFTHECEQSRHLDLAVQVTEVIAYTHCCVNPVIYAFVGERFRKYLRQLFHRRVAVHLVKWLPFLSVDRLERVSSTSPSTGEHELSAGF
Test: Antagonist activity at recombinant CCR1 (unknown origin) expressed in non-adherent cells co-expressing Galpha16 assessed as inhibition of MIP-1 alpha-induced calcium flux by Fluo-4 NW or Calcium 4 dye based FLIPR TETRA assay
Result type: IC50 (nM)

1 = Cc1c(C(=O)NCc2cccc(S(C)(=O)=O)c2)cnn1-c1ccc(Cl)cc1
2 = Cc1c(C(=O)NCc2cccc(C(F)(F)F)c2)cnn1-c1ccc([N+](=O)[O-])cc1
3 = CCCC(NC(=O)c1cnn(-c2ccc(Cl)cc2)c1C)c1ccc(S(C)(=O)=O)nc1 (configuration not stated)
4 = Cc1cc(C(=O)NCc2cccc(C(F)(F)F)c2)c(C)n1-c1ccc(Cl)cc1
Inquiry: Place the item with the largest IC50 first, then continue in falling order, using the list above. To answer, arrange all of the labels according to the requested order.
Reply text: 1, 2, 4, 3

P = COc1cc(N2CCN(C(=O)Cn3nc(-c4ncc[nH]4)c4cccnc43)CC2)ccc1Cl [CCX354]
Q = O=C(NCc1cccc(C(F)(F)F)c1)c1cnn(-c2ccc(Cl)cc2)c1CO
R = CC[C@H](NC(=O)c1cnn(-c2ccc(Cl)cc2)c1C)c1cccc(C(F)(F)F)c1F
S = Cc1c(C(=O)NCc2cccc(C(F)(F)F)c2)cnn1-c1ccc(Cl)cc1
Inquiry: Ordering: ascending IC50. To answer, arrange all of the labels according to the requested order.
Reply text: P, R, S, Q

I = CCC[C@H](NC(=O)c1cnn(-c2ccc(Cl)cc2)c1C)c1cccc(C(F)(F)F)c1F
II = CNS(=O)(=O)c1ccc(CNC(=O)c2cnn(-c3ccc(Cl)cc3)c2C)cc1
Inquiry: Quick check, higher IC50 between I and II ? // return label of chosen record
Reply text: II
(II: 420 nM, I: 10 nM)

Numbers sourced from ChEMBL document CHEMBL4371017.
